Origin of values: PubChem BioAssay

- ASSAY DETAILS: AML differentiation inducers, ER-HoxA9 marrow cells – cell-based, GFP/MAC1 double positive, flow cytometry, validation set, primary screen (AID 588685);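 also: compound exposure lasts four days before antibody staining and flow analysis; 0% = DMSO wells and 100% = 5 µM fulvestrant positive control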
- CONDITION LABEL: stronger effect = higher value, normalized: vehicle 0, fulvestrant 100
MEASURE NAME: differentiation response (%)
Numeric answer only, unit % assumed.

Answered cases to consult:
C[C@]12CCC3C(CC=C4C[C@@H](O)CC[C@@]43C)C1CCC2[C@]1(C)CCC(=O)O1 (stereo not given in full): -15.2
COC(=O)c1ccccc1NC(=O)c1ccc(COc2ccc3c(c2)CCC3)cc1: 1.22
CS(=O)(=O)Nc1cccc(C(=O)CC2(O)C(=O)Nc3ccc(Br)cc32)c1 (stereo not given): 5.13
Nc1ccc(S(=O)(=O)NC(=O)c2ccccc2)cc1: 1.22

Below: the item to evaluate.
For this compound ( CC(C)=CCCC1=CCC2C(=O)NNC(=O)C2C1 (stereo not given) ), measured differentiation response is -10.4

====

- ASSAY DETAILS: TOR pathway GLN3 branch reporter MEP2-GFP changes – S. cerevisiae, multiplex flow cytometry, primary screen (AID 1867);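 also: median GFP channel fluorescence of barcode-gated MEP2-GFP cells measured by flow cytometry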
- CONDITION LABEL: S. cerevisiae MEP2-GFP strain, 3 h, at 10 µM, stronger effect = higher value, 100% means same as DMSO wells
Inconclusive results are not listed.
MEASURE NAME: GFP response vs DMSO (%)
Numeric answer only, unit % assumed.

Answered cases to consult:
N#C/C(C(N)=O)=c1/ccc2c(c1)N1C3=C(CCCC3)CC3CCCCC31N=2 (stereo unspecified): 113
Cc1ccc2[nH]c3c(=O)n(CCc4cnc[nH]4)cnc3c2c1: 99.7
Cc1cccc2c(C(=O)O)cc(-c3cccnc3)nc12: 105
CCOC(=O)C1C(=O)OC2(CCOC(C)(C)C2)C1C(=O)OCC (stereo unspecified): 108
Cc1ccc(C2CC(=O)C(C=NCCN3CCN(C(=S)Nc4ccccc4)CC3)=C(O)C2)cc1 (stereo unspecified): 104
CCOC(=O)N1CCc2[nH]c3ccc(C)cc3c2C1: 102

For this molecule ( COc1ccc(N2C(=O)C3C(C2=O)C(C(=O)c2ccccc2)N2CCCC32)cc1 (stereo unspecified) ), measured GFP response vs DMSO is 107

For this molecule ( CC(C)C12CN3CC(C(C)C)(CN(C1)C3c1ccccc1)C2O (stereo unspecified) ), measured GFP response vs DMSO is 101

For this molecule ( "CC1=C(/C=C/C(C)=C/C=C/C(C)=C/C(=O)O)C(C)(C)CCC1" ), measured GFP response vs DMSO is 106

For this molecule ( "CNCCCC1c2ccccc2C=Cc2ccccc21" ), measured GFP response vs DMSO is 116

For this molecule ( COc1ccc(C2C(C(=O)c3ccco3)=C(O)C(=O)N2CC2CCCO2)cc1 (stereo unspecified) ), measured GFP response vs DMSO is 105

====

- TGT: GTPase HRas (Homo sapiens) (UniProt P01112)
- Sequence (P01112 whole entry, looked up): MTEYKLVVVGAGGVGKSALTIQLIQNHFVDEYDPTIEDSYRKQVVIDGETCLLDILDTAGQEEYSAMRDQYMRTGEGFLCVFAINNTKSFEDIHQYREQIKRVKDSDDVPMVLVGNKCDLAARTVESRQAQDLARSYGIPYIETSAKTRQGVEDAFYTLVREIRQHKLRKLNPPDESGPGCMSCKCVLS
- ASSAY DETAILS: Ras wt fluorescent GTP loading blockade – biochemical, wildtype, multiplex bead flow cytometry, dose response (AID 1335)
- CONDITION LABEL: bead-based flow cytometry, Bodipy-GTP binding to GST-Ras; at 100 µM (top of the series) unless noted
Hi! Just check whether GTP binding, percent of control is below 90%. Below gives true (1), equal or above gives false (0).

Observe how each entry below is paired with its result.
Cc1ccc(S(=O)(=O)N(C)C)cc1NC(=O)COC(=O)c1ccc(Cl)cc1: true (1)
COc1ccc(/C=N/NC(=O)c2ccncc2)cc1Cn1nc([N+](=O)[O-])c(Br)c1C: true (1)
COCCCNc1nc(=S)[nH]c2cc(OC)c(OC)cc12: true (1)
Cc1nc2c(ccc3nc(NC(=O)c4ccc(S(=O)(=O)N(C)C)cc4)sc32)s1: false (0)
NC(=O)c1cc2ccccc2o/c1=N/NC(=O)c1cccs1: true (1)
CCCCCCCCSc1nnc2[nH]c(=O)cc(N)n12: true (1)
CCOC(=O)c1sc(NC(=O)CSc2nnc(Cc3ccccc3)o2)c(C#N)c1C: true (1)
COc1cc2[nH]c(=S)nc(NCCC(C)C)c2cc1OC: true (1)
CN(C)/C=C(\C#N)C(N)=C(C#N)C#N: true (1)
COc1cc(/C=C2/SC(=Nc3ccc(O)cc3)NC2=O)cc(OC)c1O: true (1)

Q. Consider "CCc1nnc(NC(=O)CCC(=O)N2CCN(c3ccccn3)CC2)s1" . Does its GTP binding, percent of control lie strictly below 90%?
A. false (0)

Q. Consider "Nc1[nH]nc2ncc3cc4ccccc4nc3c12" . Does its GTP binding, percent of control lie strictly below 90%?
A. true (1)

Q. Consider "O=C(O)c1cc(Sc2ccc(Cl)cc2)nc2ccccc12" . Does its GTP binding, percent of control lie strictly below 90%?
A. true (1)

Q. Consider "COc1ccc(-c2nnc(SCC(=O)c3cccs3)o2)cc1" . Does its GTP binding, percent of control lie strictly below 90%?
A. false (0)

Q. Consider COc1ccc(C(=O)C2CCCN(C(=O)c3cc4nc(C)cc(C)n4n3)C2)cc1F (centres undefined) . Does its GTP binding, percent of control lie strictly below 90%?
A. false (0)

====

GFP response, % of DMSO for assorted molecules
- ASSAY DETAILS: yeast AGP1-GFP level changes, GLN3 branch – cell-based, multiplex flow cytometry, S. cerevisiae, primary screen (AID 1887);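 also: AGP1-GFP fusion strain of S. cerevisiae within a five-strain barcoded multiplex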
- CONDITION LABEL: 3 h, at 10 µM, stronger effect = higher value
Results filed as inconclusive are left out.
Numeric answer only, unit % assumed.

Answered cases to consult:
COc1ccc(OC)c(NC2=C(Cl)C(=O)N(Cc3ccccc3)C2=O)c1: 99.8
O=C(O)c1cccnc1Nc1cccc(C(F)(F)F)c1: 93.3
CCc1c(C(C)=O)oc2ccc3c(C)cc(=O)oc3c12: 101
Cc1cccc(N2CCN(C(=S)c3ccccc3)CC2)c1: 90.8
Cc1cc(OC(=O)CNC(=O)OC(C)(C)C)c2c(C)cc(=O)oc2c1: 111

For this molecule ( "CN(C)C(=O)Oc1ccc[n+](C)c1" ), measured GFP response, % of DMSO is 95.9

For this molecule ( COc1ccc(OC(C)C(=O)Nc2ccc([N+](=O)[O-])cc2)cc1 (configuration not stated) ), measured GFP response, % of DMSO is 97.5

For this molecule ( "COC(=O)CCC(=O)CN" ), measured GFP response, % of DMSO is 113

For this molecule ( "CCOC(=O)c1cccc(P(C)(C)=O)c1" ), measured GFP response, % of DMSO is 104

====

- TGT: Cell division control protein 42 homolog (Homo sapiens)
- ASSAY DETAILS: inhibition of fluorescent GTP binding to wildtype Cdc42 – biochemical, multiplex bead flow cytometry, Bodipy-FL-GTP, dose response (AID 1334)
- CONDITION LABEL: bead-based flow cytometry, Bodipy-FL-GTP binding to GST-Cdc42; at 100 µM (top of the series) unless noted
Entries with a potency or affinity are not part of this list.
MEASURE NAME: fluorescence, percent of control (lower = inhibition)
Output should be the measured figure followed by the unit it is expressed in.

CC(C)N(C)NC(=S)Nc1ccccc1: 53.9%

For this compound ( "Cc1nc(-c2ccccc2)sc1C(=O)NN" ), measured fluorescence, percent of control (lower = inhibition) is 39.4%

For this compound ( "NC(=S)N=Nc1c(O)[nH]c2cc(F)c(F)cc12" ), measured fluorescence, percent of control (lower = inhibition) is 29.7%

For this compound ( "Cc1ccc(Sc2ncccc2C(=O)O)c(C)c1" ), measured fluorescence, percent of control (lower = inhibition) is 78%

====

- TGT: Cell division control protein 42 homolog (Homo sapiens) (UniProt P60953)
- Sequence (P60953 whole entry, looked up): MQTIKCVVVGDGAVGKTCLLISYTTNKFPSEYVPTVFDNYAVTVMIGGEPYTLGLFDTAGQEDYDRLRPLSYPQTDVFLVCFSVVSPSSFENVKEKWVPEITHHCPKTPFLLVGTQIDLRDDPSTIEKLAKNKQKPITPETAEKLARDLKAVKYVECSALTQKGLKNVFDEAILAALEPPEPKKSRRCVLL
- ASSAY DETAILS: inhibition of fluorescent GTP binding to wildtype Cdc42 – biochemical, multiplex bead flow cytometry, Bodipy-FL-GTP, dose response (AID 1334)
- CONDITION LABEL: bead-based flow cytometry, Bodipy-FL-GTP binding to GST-Cdc42; at 100 µM (top of the series) unless noted
Results with a measured potency or affinity are listed apart.
MEASURE NAME: fluorescence, percent of control (lower = inhibition) (%)
Numeric answer only, unit % assumed.

Answered cases to consult:
O=c1[nH]c(N/N=C/c2ccc(O)cc2)nc2ccccc12: 31.4
O=C(Cn1nc2ccccc2n1)N/N=C/c1cc([N+](=O)[O-])ccc1O: 23.8
COc1ccc(C(=O)O)c(OCc2ccccc2Br)c1: 59.6
Cc1cc(NC(=O)CSc2nc(-c3ccccc3)c(C#N)c(=O)[nH]2)no1: 45.4
O=C(O)c1ccc(COc2ccccc2Cl)o1: 73.5

Below: the item to evaluate.
For this compound ( "O=C(O)COc1ccccc1/C=N/NC(=O)c1cc(-c2ccc(F)cc2)nc2ccccc12" ), measured fluorescence, percent of control (lower = inhibition) is 30.7
